Entries annotated with measured GI50
# Test system: DU-145
# test_details: NCI tumour cell line growth inhibition, 48 h
Activity calls are given as the source filed them. No stated cut-off is given here; in the data, active = GI50 up to about 1.1 µM and inactive = higher.

molecule	GI50
O=c1c2cc(S(=O)(=O)O)ccc2nc(COc2ccc(Oc3ccc(Cl)cc3Cl)cc2)n1-c1ccc(Cl)cc1Oc1c(Cl)cccc1Cl	38 µM (inactive)
CCC(c1c[nH]c2ccc(Br)cc12)c1c[nH]c2ccc(Br)cc12	2.88 µM (inactive)
CCOC(=O)[C@@H]1ON2O[C@H](OC3CCCCC3c3ccccc3)C[C@H]3OC(=O)[C@@H]1C32 (stereo not given in full)	> 100 µM (inactive)
COc1ccc2c(c1)CC[C@@H]1[C@@H]2CC[C@]2(C)C(=O)/C(=C/c3cc(OC)c(OC)c(OC)c3)C[C@@H]12	42.4 µM (inactive)
C[C@H]1C[C@H](C)c2ccccc2N(C)/C1=N\c1ccccc1	92 µM (inactive)
O=C1Nc2ccccc2C1Cc1ccc([N+](=O)[O-])cc1 (stereo not given)	> 100 µM (inactive)
CC(C)NC(=O)OCc1c(COC(=O)NC(C)C)c(-c2cc[n+](COC(=O)C3CC3)cc2)n2c1CCC2	> 100 µM (inactive)
COc1ccc2c(c1)c1c(C)c3cnccc3c(C)c1n2CCCN	0.0603 µM (active)
C=C1C[C@@H]2CC[C@@]34CC5O[C@H]6C(O[C@H]7CC[C@H](CC(=O)O[C@@H]8[C@@H](C)[C@@H]9O[C@@H]%10C[C@]%11(C[C@@H]%12O[C@]%13(C[C@H](C)[C@@H]%14O[C@@H]%15CC(C(O)CO)O[C@@H]%15C[C@@H]%14O%13)C[C@H](C)[C@@H]%12O%11)O[C@@H]%10C[C@@H]9O[C@H]8CC8O[C@@H](CC[C@@H]1O2)C[C@@H](C)C8(O)CO)O[C@@H]7[C@@H]6O3)[C@H]5O4 (stereo not given in full)	> 0.916 µM (active)
C=CCOCn1cc(F)c(=O)[nH]c1=O	> 100 µM (inactive)
COC(=O)C(=O)C(C(=O)C(=O)Nc1cc(C)ccc1C)c1nc2ccccc2nc1O (stereo not given)	> 100 µM (inactive)
O=C(O)c1ccccc1CC(Cc1ccc2c(c1)CCC2)C(=O)O (stereo not given)	> 100 µM (inactive)
COc1ccc2c(c1)CCC/C2=N\NS(=O)(=O)c1c(C)cc(C)cc1C	25.6 µM (inactive)
O=C(O)c1cccc(S(=O)(=O)NN2C(=O)CSC2c2c(O)ccc3ccccc23)c1 (stereo not given)	44.7 µM (inactive)
CC(C)OP(=O)(OC(C)C)C(C(C)C)N(C)/C(F)=N/C(F)(F)F (stereo not given)	> 100 µM (inactive)

---

Entries annotated with measured GI50
# Tested on: SNB-75
# test_details: NCI tumour cell line growth inhibition, 48 h
Activity calls are given as the source filed them. No stated cut-off is given here; in the data, active = GI50 up to about 1.1 µM and inactive = higher.

molecule	GI50
Cc1ccc(OCC2OC(n3cnc4nc(N)nc(Cl)c43)CC2Oc2ccc(C)cc2)cc1 (centres undefined)	11 µM (inactive)
C#CCOC(=O)C(N)CSSCC(N)C(=O)O (centres undefined)	> 100 µM (inactive)
COC1C(OC(=O)c2ccc(C)[nH]2)C(O)C(Oc2ccc3c(O)c(NC(=O)c4ccc(O)c(CC=C(C)C)c4)c(=O)oc3c2Cl)OC1(C)C (centres undefined)	19.1 µM (inactive)
CC1=C/C(=N\NC(N)=S)C(C(O)(C(F)(F)F)C(F)(F)F)C(C)(C)C1 (centres undefined)	> 10 µM (inactive)

---

# Test system: UACC-257
# test_details: NCI tumour cell line growth inhibition, 48 h
Activity calls are given as the source filed them. Rule as the data show it: active = GI50 up to about 1.1 µM and inactive = higher.
Entries annotated with measured GI50

molecule	GI50
CN1C(=O)c2ccccc2OC12C=Cc1c(ccc3ccccc13)O2 (stereo not given)	8.3 µM (inactive)
CCOC(=O)c1ccc(Nc2nc3ccc(C(F)(F)F)cc3nc2-c2ccccc2)cc1	> 100 µM (inactive)
CC1CC(=O)Nc2ccccc2N1C(=O)CN1CCC(CCCCN(C)C)CC1 (stereo not given)	> 100 µM (inactive)
Cc1nc(C)c(N2CCN(C(=O)NC(CCC(=O)O)C(=O)O)CC2)c(O)n1 (stereo not given)	> 100 µM (inactive)
CC(C)C1N(C)c2ccc(Cl)cc2[C@H]2c3ccccc3CCN12 (stereo not given in full)	30.4 µM (inactive)
c1cncc(-c2ncc3cccnc3n2)c1	> 100 µM (inactive)
COC1C(OC(=O)c2ccc(C)[nH]2)C(O)C(Oc2ccc3c(O)c(NC(=O)c4ccc(O)c(CC=C(C)C)c4)c(=O)oc3c2Cl)OC1(C)C (stereo not given)	54 µM (inactive)
C=CC1(C)OC2(CCN(C(=O)OCC)CC2)OC1C (stereo not given)	> 100 µM (inactive)
COC(=O)C1CC2CC(=NNC(N)=O)CC2C1 (stereo not given)	> 100 µM (inactive)
Cc1nc(O)nc(N/N=C/c2ccc(Cl)c(Cl)c2)c1C(=O)Nc1ccc(Cl)c(Cl)c1	> 24.6 µM (inactive)

---

# System: OVCAR-5
# test_details: NCI tumour cell line growth inhibition, 48 h
Activity calls are given as the source filed them. Cut-off read from the data, not from the text of the source: active = GI50 up to about 1.1 µM and inactive = higher.

compound	GI50
CC(=O)c1sc2[n+](c1C)C(=O)/C(=C\c1ccccc1Cl)S2	24.3 µM (inactive)
COc1ccc2c(c1)CC[C@@H]1[C@@H]2CC[C@]2(C)[C@@H](O)/C(=C/c3ccncc3)C[C@@H]12	12.5 µM (inactive)
Cc1cc2c(cc1Cl)SC(NNC(=O)c1ccco1)=NS2(=O)=O	> 10 µM (inactive)
CN(C)C(=N)c1ccccc1	> 100 µM (inactive)
Nc1ccc2c3c1cccc3c(=O)n1c3ccc(Cc4ccc5c(c4)nc4c6ccc(N)c7cccc(c(=O)n54)c76)cc3nc21	> 100 µM (inactive)
Cc1cn(CCCCCCOC(=O)NC(CCCNC(=N)N)C(=O)O)c(=O)[nH]c1=O (centres undefined)	> 100 µM (inactive)
O=Cc1ccc(-c2cccc([N+](=O)[O-])c2)s1	> 100 µM (inactive)
O=C(O)CNc1c2ccccc2[n+]([O-])c2ccccc12	> 100 µM (inactive)
CN(C)Cc1cc(C(C)(C)C)cc(CNC2CCCCC2)c1O	19.2 µM (inactive)

---

# Test system: HCT-116
# test_details: NCI tumour cell line growth inhibition, 48 h
Calls of active or inactive are those of the source. Cut-off read from the data, not from the text of the source: active = GI50 up to about 1.1 µM and inactive = higher.
measure: GI50

compound	reported_result
[C-]#[N+][C@@H]1C2[C@H](CC[C@@]1(C)O)C(=C)CC[C@@H]2[C@@]1(C)CC[C@H](Cl)C(C)(C)O1 (stereo partly drawn)	2.23 µM (inactive)
COc1c(O)cc2c(c1O)C(=O)C1=C(CCCC1)C2=O	12.5 µM (inactive)
N#CC(/N=N/c1ccccc1)c1nc2ccccc2o1 (stereo not drawn)	21.7 µM (inactive)

---

# Tested on: LOX IMVI
# test_details: NCI tumour cell line growth inhibition, 48 h
Active and inactive are the calls of the source. Cut-off read from the data, not from the text of the source: active = GI50 up to about 1.1 µM and inactive = higher.

molecule	GI50
CCOC(=O)CCC(NC(=O)Cc1ccc(Nc2nc3ccccc3nc2-c2ccccc2)cc1)C(=O)OCC (centres undefined)	> 100 µM (inactive)
O=C1/C(=C2/CCCN2)C(c2ccc[nH]2)=NN1c1ccccc1	> 100 µM (inactive)
COC(=O)c1c(O)ccc2c1c1c(n2C)C(=O)c2ccccc2C1=O	16.7 µM (inactive)
CCc1ccccc1N1C(=O)C(=O)C(c2nc3ccccc3s2)C(=O)C1=O	> 100 µM (inactive)
C[n+]1c(-c2ccccc2)cc2/c(=C\c3ccccc3)c3ccccc3n21	1.25 µM (inactive)
C/C(=N/NC(=S)N1CCN(C(=S)N/N=C(/C)c2ccccn2)CC1)c1ccccn1	5.94 µM (inactive)
COc1cc(CC2c3cc(OC)c(OC)cc3CCN2C)c(Oc2cc3c(cc2OC)-c2c(OC)c(OC)c(OC)c4c2C(C3)N(C)CC4)cc1OC (centres undefined)	6.73 µM (inactive)
C=CCn1c(-c2ccc(Cl)cc2)cs/c1=N\c1ccccc1OC	41.1 µM (inactive)
O=C1/C(=C\c2ccc(Cl)cc2)N=C(c2ccccc2)N1n1c(=O)cn[nH]c1=S	27.8 µM (inactive)

---

# Test system: OVCAR-3
# test_details: NCI tumour cell line growth inhibition, 48 h
Calls of active or inactive are those of the source. Cut-off read from the data, not from the text of the source: active = GI50 up to about 1.1 µM and inactive = higher.
measure: GI50

smiles_data	reported_result
NC(=O)c1sc2nc3ccccc3n2c1N	> 100 µM (inactive)
Brc1cccc(Nc2nc(-c3cccs3)nc3ccc(Br)cc23)c1	16.1 µM (inactive)
CN(C)Cc1cc(C(C)(C)C)cc(CNC2CCCCC2)c1O	29.9 µM (inactive)
Cc1nc(O)nc(N/N=C/c2ccc(Cl)c(Cl)c2)c1C(=O)Nc1ccc(Cl)c(Cl)c1	9.62 µM (inactive)

---

# Tested on: SK-MEL-28
# test_details: NCI tumour cell line growth inhibition, 48 h
Active and inactive are the calls of the source. No stated cut-off is given here; in the data, active = GI50 up to about 1.1 µM and inactive = higher.
Entries annotated with measured GI50
measure: GI50

compound	reported_result
COc1ccc2c(c1O)C(=O)C(CCC(=O)O)CC2 (centres undefined)	> 100 µM (inactive)
O=C(OCc1c(-c2ccccc2)nn(-c2ccccc2)c1COC(=O)Oc1ccccc1)Oc1ccccc1	> 100 µM (inactive)
CN1C(=O)C2C3C=C4c5ccccc5N(c5ccccc5)C4(C2C1=O)[C@H]1C(=O)N(C)C(=O)[C@@H]31 (some centres undefined)	> 100 µM (inactive)
C/C(=N/NC(=S)N1CCN(C(=S)N/N=C(/C)c2ccccn2)CC1)c1ccccn1	14.3 µM (inactive)

From: ChEMBL document CHEMBL1201862
